experiment: yeast display, Sf9 membrane polyspecificity reagent, FACS + sequencing; frameworks hold sequencing errors
MEASUREMENT_NAME: polyreactivity (PSR sort gate)

Known polyreactivity (PSR sort gate) results, listed for orientation:
QVQLVESGGGLVQAGGSLRLSCAASGSTITDYTMGWYRQAPGKERELVAVISQSGGSTYYADSVKGRFTISRDNAKNTVYLQMNSLKPEDTAVYYCAARTYWRGYRGQKYDYWGQGTQVTVSS high polyreactivity
QVQLVESGGGLVQAGGSLRLSCAASGLTFQYYAMGWYRQAPGKEREFVAAITRRGGNTYYADSVKGRFTISRDNAKNTVYLQMNSLKPEDTAVYYCAARYLQGRYDYWGQGTQVTVSS high polyreactivity
QVQLVESGGGLVQAGGSLRLSCAASGIIFRYYAMGWYRQAPGKERELVAAISVSGGSTYDADSVKGRFTISRDNAKNTVYLQMNSLKPEDTAVYYCAARTRDFGYWGQGTQVTVSS high polyreactivity
QVQLVESGGALVQAGGSLRLSCAASGSIFSEYAMGWYRQAPGKERELVAAISRSGGTTYYADSVKGRFSISRDNAKNTVYLQMNSLKPEDTAVYYCAARYFRGSYPMGYWGQGTQVTVSS high polyreactivity

Would you kindly look at the next entry?
Please give the measured polyreactivity (PSR sort gate) for this sequence: QVQLVESGGGLVQAGGSLRLSCAASGNTFVPYVMGWYRQAPGKERELVAAISRRGGSTRYADSVKGRFTISRDNAKNTVYLQMNSLNPEDTAVYYCAADGYVFALQRSRGVDFGYEYWGQGTQVTVSS
high polyreactivity

###

assay: yeast display, Sf9 membrane polyspecificity reagent, FACS + sequencing; frameworks hold sequencing errors
MEASUREMENT_NAME: polyreactivity (PSR sort gate)

The cases that follow already have their polyreactivity (PSR sort gate) on record.
QVQLVESGGGLFQAGGILRLSCAASGFTFERNDMGWYRQAPGKERELVATISQSGTNTYYADSVKGRFTISRDNAKNTVYVQMNSMKPEDTAVYYCNARYIFYRYDYWGHGTQVTVSS low polyreactivity
QVQLVESGGGLVQAGGSLRLSCAASGLIFGRNVMGWYRQAPGKERELVAAISWSGGRTYYADSVKGRFTISRDNAKNTVYLQMNSLKPEDTAVYYCAADDGPGFDYWGQGTQVTVSS high polyreactivity
QVQLVESGGGLVQAGGSLRLSCAASGRTSVLYAMGWSRQAPGKEREFVAAITWNSGSTYYADSVKGRFTISRDNAKNTVYLQMISLKPEDTAVYYCNADYYFTSYRSTYDYWGQGTHVTVSS low polyreactivity
QVQLVESGGGLVQAGGSLRLSCAASGITLGYYVMGWYRQAPGKERELVAAISSSGGRTYYADSVKGRFTISRDNAKNTVYLQMNSLKPEDTAVYYCAADLGRGIYDYWGQGTQVTVSS low polyreactivity
QVQLVESGGGLVQAGGSLRLSCAASGSTFLVYAMGWYRQAPGKERELVAVIDNGGDTYYADSVKGRFTISRDNAKNTVYLQMNSLIPEDTEVYYCAADLSYLGYWEYDYWGQGTQVTVSS low polyreactivity

In the following, a different sequence is considered.
Please report the recorded polyreactivity (PSR sort gate) for QVQLVESGGGLVHAGGSLRLSCAASGSTFGANAMGWYRQAPGKEREFVAAISGSGTTTYYADSVKGRFTISRDNAKNSVYLQMNSLKPEDTAVYYCAKTRKGHWLEYWGQGTQVTVSS .
low polyreactivity

###

test: yeast display, Sf9 membrane polyspecificity reagent, FACS + sequencing; frameworks hold sequencing errors
MEASUREMENT_NAME: polyreactivity (PSR sort gate)

QVQLVESGGGLVQAGVSLRLSCAASGRTFRHNVMGRYRQAPGKERELVAAISYSGGSTHYADSVKGRFTISRDNAKNTVYLQMNSQKPEDTAVYYCNRYSYDSHFLYPFRGHDYWGQGTQVTVSS low polyreactivity
QVQLVESGGGLVQAGGSLRISCAASGSTFYHNVMGWYRPAPGKERELVASIDTGDSTNYADSVKGRFTISLDNAKNTVYLQMNSLKPEDTAVYYCNADSYPALNKRGYDYWGQGTQVTVSA low polyreactivity
QVQLEESGGGLVQAGGSLRLCCAASGFTFDYNAKGWYRQPPGKLRDLVAVISSSGSRTYYADSVKGRFTISRDYAKNTVYLQMNSLKPEDSAVYYWAGARIGTSDYWGQGTQVTESS high polyreactivity
QVQLVESGGGLVQAGGSLRLSCAASGRIFLRYTMGWYRQAPGKERELVAAISARTTGTYYADSVKGRFTISRDNAKNTVYLQMNSLKPEDTAVYYCAAKSKLSRDLFSWGQGTQVTVSS low polyreactivity
QVHLVESGGGLVQAGGSLRLSCAASGILRLNAMGWYRQAPGKEREFVATISRSGGITYYADSVKGRFTISRDNAKNTVYLQMNSLKPEDTAVYYCAKGGYSLYGYWGQGTQVTVSS high polyreactivity

Report polyreactivity (PSR sort gate) for QVQIVESGGGLVQAGGSLRLSCAASGSIFSGYVMGWYRQAPGKERELVAAITWSGGRTYYADSVKGRFTISRDNAKNTVYLQMNSLKPEDTAVYYCAKRKIKSSGYYYWGQGTQVTVSS please.
high polyreactivity

Please give the measured polyreactivity (PSR sort gate) for this sequence: QVQLVESGGGLVQAGGSLRLSCATSGFTLLKNAMGWYRQAPGKERELVAAIRQRGTTTYYADSVKGRFTISRDNAKNTVYLQMNSLKPEDTAVYSCNAGRRTGRYGYWGQGTQVTVSS
high polyreactivity

Please give the measured polyreactivity (PSR sort gate) for this sequence: QVQLVESGGGLVQAGGSLRLSCAASGRTFGWNGMGWYRQAPGKERELVAVISSGGSTKYADSVKGRFTISRDNAKNTVYLQMNSLKPEDTAVYYCAKDWVRSGRRKMDYWGQGTQVTVSS
low polyreactivity

Which polyreactivity (PSR sort gate) reading was recorded for the sequence QVQLVESGGGLVQAGGSLRLSCAASGRTFSGYAMGWDRQAPGKERELDAAISRGGSTNYADSVKGRFTISRDNAKNTVYLQMNSLKPEDTAVYYCAVRVYYGWAQPGYYYWGQGTQVTVSS ?
high polyreactivity

Would you mind telling me what polyreactivity (PSR sort gate) value was observed for QVQLVESGGGLVQAGGSLRLSCAASGSTFYLYTMGWYRQAPGKERELVAAISRSGGSTRYADSVKGRFTISRDNAKNTVYLQMNSLKPEDTAVYYCAARSTVYPRPHERDYWGQGTQVTVSS ?
high polyreactivity

Query: polyreactivity (PSR sort gate); subject: QVQLVESGGGLVQAGGSLRLSCAASGSIFFYAMGWYRQARGKERELVADITYTGGSKYADSVKGRFTISRDNAKNTVYLQMNSLKPEDTAVYYCAKLDGGLFDYWGQGTQVTVSS
low polyreactivity

###

assay: yeast display, Sf9 membrane polyspecificity reagent, FACS + sequencing; frameworks hold sequencing errors
MEASUREMENT_NAME: polyreactivity (PSR sort gate)

Here's what some known entries look like.
QVQLVESRGGLVQAGGSLRLSCAASGLIFWFNTMGWYRQAPGTERELVAAITSGGGSTYYADSVKGRFTISRDIAKNTVYLQKNSLKPEDTAVYYCNAGAGRWRARQWHDYWGQGTQVTVSS low polyreactivity
QVQLVESGGGLVQAGGSLRLSCAASGFTFYYYAMGWYRQAPGKERELVAAISSTGGSTYYADSVKGRFTISRDNAKNTVYLQMNSLKPEDSAVYYCNAAGYRYPGDYDYWGQGTQVTVSS high polyreactivity
QVQLVESGGGLVQAGGSLRLSCAASGSIFYGNAMGWYRQAPGKERELVAAISESGGSTYYADSVKGRFTISRDNAKNTVYFQMNSLKPEDTAVYYCNSEAWGYYWWWGYDYWGHGTQVTVSS low polyreactivity
QVQLVESGGGLVQAGGSLRLSCAASGRTFGRNAMGWYRQAPGKERELVAAISYGGGSTYYADSVKGRFTISRDNAKNTVYLQMNSLKPEDTAVYYCAAPTDDSSLGVYKHGYWGQCTQVTVSS low polyreactivity

--- query ---
Entry QVQLVESGGGLVQAGGSLRLSCAASGLTFYQNAMGWYRPAPGTERELVAGISSVGSTKYADSVKGRFTISRDNAKNTVYLQMNSLKPEDTAVYYCAPRFYAFRKGYYYWGQGTQVTVSS : reported polyreactivity (PSR sort gate) = ?
high polyreactivity

###

assay: yeast display, Sf9 membrane polyspecificity reagent, FACS + sequencing; frameworks hold sequencing errors
MEASUREMENT_NAME: polyreactivity (PSR sort gate)

QVHLVESGGGLVQAGGSLRLICAASGRILYLYAMGWYRQAPGKERELVARISQRDGSTYYADSVKGRFTISRDNAKNTVYLQMNSLKPEDTAVYYCNADFYLGSYGYSYDYWGQGTQVTVSS low polyreactivity
QVQLVESCGGLGQAGGSLRLSCSASGRIFGTYAKGLYRKAPGKERELLASISYSDGSTYADSVKGRFTISRDNAKNTVYLQMNSLKPEDTSVYYCAADVYYYAQSEDGYWGQGTQVTVSS low polyreactivity

src = the nanobody polyreactivity screen of Harvey et al. (2022)
